- Test system: HCT-116
- assay.details: NCI tumour cell line growth inhibition, 48 h
Calls of active or inactive are those of the source. Cut-off read from the data, not from the text of the source: active = GI50 up to about 1.1 µM and inactive = higher.
measured.endpoint: GI50

compound | reported.value
CC1=NN(c2nc(N)nc(COc3ccc(N)cc3)n2)C(C)(C)C1 | > 100 µM (inactive)
COC1C2c3ccccc3C(C#N)(Cc3ccc4c(c32)OCO4)N1C(=O)c1ccccc1 (stereo unspecified) | 37.6 µM (inactive)
CSc1ncc2c(C#N)c3n(C)c4ccccc4n3c(=O)c2n1 | > 100 µM (inactive)
O=C1NC(=O)C(Cc2ccccc2)(c2cccnc2)N1 (stereo unspecified) | > 100 µM (inactive)
O=S(=O)(O)c1ccc(O)c2ncc(Cl)cc12 | > 100 µM (inactive)
CC1(C)CCc2ccc(OCCC(=O)O)cc2O1 | > 100 µM (inactive)
CCCCOC(=O)CNC(=O)OCCCCC#CC#CCCCCOC(=O)NCC(=O)OCCCC | > 100 µM (inactive)
COc1ccc(/C=N/NC(=O)c2ccccc2Nc2ccccc2C(=O)N/N=C/c2ccc(OC)c(OC)c2)cc1OC | > 100 µM (inactive)
CCOC(=O)CSc1nnc(C(Sc2nc(-c3ccccc3)c(-c3ccccc3)[nH]2)C(C)C)n1-c1ccccc1 (stereo unspecified) | 14.5 µM (inactive)
COc1cc2c(cc1OC)C(Cc1c3ccccc3cc3ccccc13)N(C)CC2 (stereo unspecified) | 14.9 µM (inactive)
CC1C=C(NCC2(CO)CCC2)N=C(N)N1 (stereo unspecified) | > 100 µM (inactive)
